test target: HDAC1 (Homo sapiens)
Construct: purchased BPS Bioscience
measurement notes: In vitro HDAC1 enzymatic activity inhibition (Lys-Ac-AMC substrate)
Type: biochemical
measurement parameters: Table 1, graded; read-out: HDAC1 IC50
Reported IC50 values follow for various compounds

>  <compound>
CN(Cc1nc2c(N3CCOCC3)nc(Cl)nc2n1C)c1ncc(C(=O)NO)cn1 [CLJ-68]

>  <IC50>
< 100 nM

$$$$
>  <compound>
CCn1c(CN(C)c2ncc(C(=O)NO)cn2)nc2c(N3CCOCC3)nc(-c3ccc(OC)cc3)nc21 [CLJ-30]

>  <IC50>
< 100 nM

$$$$
>  <compound>
CN(Cc1nc2c(N3CCOCC3)nc(-c3cc(C(F)(F)F)cc(C(F)(F)F)c3)nc2n1C)c1ncc(C(=O)NO)cn1 [CLJ-56]

>  <IC50>
< 100 nM

$$$$
>  <compound>
CN(Cc1nc2c(N3CCOCC3)nc(-c3ccsc3)nc2n1C)c1ncc(C(=O)NO)cn1 [CLJ-22]

>  <IC50>
< 1 nM

$$$$

* * *

test target: HDAC1 (Homo sapiens, UniProt Q13547)
Construct: purchased BPS Bioscience
Sequence (Q13547 whole entry, species assumed): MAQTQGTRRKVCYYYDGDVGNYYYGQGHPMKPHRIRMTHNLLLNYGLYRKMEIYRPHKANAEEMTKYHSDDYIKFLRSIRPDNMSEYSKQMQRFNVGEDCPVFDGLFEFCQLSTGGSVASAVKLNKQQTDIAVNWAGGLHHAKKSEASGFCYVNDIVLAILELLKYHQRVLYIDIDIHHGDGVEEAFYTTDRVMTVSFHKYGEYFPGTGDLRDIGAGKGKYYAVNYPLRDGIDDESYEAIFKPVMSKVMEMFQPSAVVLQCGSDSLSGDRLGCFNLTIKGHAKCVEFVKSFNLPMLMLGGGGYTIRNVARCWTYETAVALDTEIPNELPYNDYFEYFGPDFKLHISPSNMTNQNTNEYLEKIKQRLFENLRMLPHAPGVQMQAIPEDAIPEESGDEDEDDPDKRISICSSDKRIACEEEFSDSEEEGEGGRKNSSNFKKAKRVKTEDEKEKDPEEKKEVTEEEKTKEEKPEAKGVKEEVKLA
measurement notes: In vitro HDAC1 enzymatic activity inhibition (Lys-Ac-AMC substrate)
Assay type: biochemical
measurement parameters: Table 4, graded; read-out: HDAC1 IC50
pIC50: −log10 of the molar value.
outcome measure: pIC50

>  <compound>
CN(Cc1nc2c(N3CCOCC3)nc(-c3cnc(N)nc3)nc2n1C)c1ncc(C(=O)NO)cn1 [CLJ-11]

>  <result>
7.00 to 9.00

$$$$
>  <compound>
COc1ccc(-c2nc(N3CCOCC3)c3nc(CN(C)c4ncc(C(=O)NO)cn4)n(C)c3n2)cc1 [CLJ-29]

>  <result>
> 9.00

$$$$
>  <compound>
COc1ccc(-c2nc(N3CCOCC3)c3nc(CN(C)c4ncc(C(=O)NO)cn4)n(C)c3n2)cn1 [CLJ-1]

>  <result>
7.00 to 9.00

$$$$
>  <compound>
CN(Cc1nc2c(N3CCOCC3)nc(-c3ccc(N)cc3)nc2n1C)c1ncc(C(=O)NO)cn1 [CLJ-44]

>  <result>
> 9.00

$$$$

* * *

test target: HDAC1 (Homo sapiens, UniProt Q13547)
Construct: purchased BPS Bioscience
measurement notes: In vitro HDAC1 enzymatic activity inhibition (Lys-Ac-AMC substrate)
Format: biochemical
measurement parameters: Table 1, graded; read-out: HDAC1 IC50
outcome measure: IC50

>  <molecule>
CN(Cc1nc2c(N3CCOCC3)nc(-c3cnc4ccccc4c3)nc2n1C)c1ncc(C(=O)NO)cn1 [CLJ-14]

>  <result>
< 0.1 µM

$$$$
>  <molecule>
CCn1c(CN(C)c2ncc(C(=O)NO)cn2)nc2c(N3CCOCC3)nc(-c3ccc(OC)nc3)nc21 [CLJ-2]

>  <result>
< 0.1 µM

$$$$
>  <molecule>
CN(Cc1nc2c(N3CCOCC3)nc(-c3cnc(N)nc3)nc2n1C)c1ncc(C(=O)NO)cn1 [CLJ-11]

>  <result>
< 0.1 µM

$$$$
>  <molecule>
CN(Cc1nc2c(N3CCOCC3)nc(-c3ccc(S(=O)(=O)NCCCCl)cc3)nc2n1C)c1ncc(C(=O)NO)cn1 [CLJ-58]

>  <result>
< 0.1 µM

$$$$
>  <molecule>
COc1ccc(C(F)(F)F)cc1-c1nc(N2CCOCC2)c2nc(CN(C)c3ncc(C(=O)NO)cn3)n(C)c2n1 [CLJ-38]

>  <result>
< 0.1 µM

$$$$
>  <molecule>
COc1ccc(-c2nc(N3CCOCC3)c3nc(CN(C)c4ncc(C(=O)NO)cn4)n(C)c3n2)cn1 [CLJ-1]

>  <result>
< 0.1 µM

$$$$
>  <molecule>
CCCCc1ccc(-c2nc(N3CCOCC3)c3nc(CN(C)c4ncc(C(=O)NO)cn4)n(C)c3n2)s1 [CLJ-21]

>  <result>
< 0.1 µM

$$$$
>  <molecule>
Cc1ncc(-c2nc(N3CCOCC3)c3nc(CN(C)c4ncc(C(=O)NO)cn4)n(C)c3n2)cn1 [CLJ-13]

>  <result>
< 0.1 µM

$$$$
>  <molecule>
COc1ccc(-c2nc(N3CCOCC3)c3nc(CN(C)c4ncc(C(=O)NO)cn4)n(C)c3n2)cc1 [CLJ-29]

>  <result>
< 0.001 µM

$$$$
>  <molecule>
CN(Cc1nc2c(N3CCOCC3)nc(-c3ccco3)nc2n1C)c1ncc(C(=O)NO)cn1 [CLJ-26]

>  <result>
< 0.001 µM

$$$$
>  <molecule>
COc1ccc(-c2nc(N3CCOCC3)c3nc(CN(C)c4ncc(C(=O)NO)cn4)n(C4CCCC4)c3n2)cn1 [CLJ-4]

>  <result>
< 0.1 µM

$$$$
>  <molecule>
Cc1ccsc1-c1nc(N2CCOCC2)c2nc(CN(C)c3ncc(C(=O)NO)cn3)n(C)c2n1 [CLJ-19]

>  <result>
< 0.1 µM

$$$$
>  <molecule>
COc1ccc(-c2nc(N3CCOCC3)c3nc(CNc4ncc(C(=O)NO)cn4)n(C)c3n2)cc1 [CLJ-34]

>  <result>
< 0.1 µM

$$$$
>  <molecule>
COc1ccc(-c2nc(N3CCOCC3)c3nc(CN(C)c4ncc(C(=O)NO)cn4)n(C(C)C)c3n2)cn1 [CLJ-3]

>  <result>
< 0.1 µM

$$$$
>  <molecule>
CCCCn1c(CN(C)c2ncc(C(=O)NO)cn2)nc2c(N3CCOCC3)nc(-c3ccc(OC)cc3)nc21 [CLJ-33]

>  <result>
0.1 to 1 µM

$$$$
>  <molecule>
CCc1ccc(-c2nc(N3CCOCC3)c3nc(CN(C)c4ncc(C(=O)NO)cn4)n(C)c3n2)cc1 [CLJ-61]

>  <result>
< 0.1 µM

$$$$

Every entry's value here was drawn from patent US10227347B2.
